Target: Recombinant human aldo-keto reductase family 1 member C2 (AKR1C2) protein (Homo sapiens, UniProt P52895)
Construct: made in house; host or cells: Sf-9 insect cells (baculovirus)
Sequence (P52895 1-323): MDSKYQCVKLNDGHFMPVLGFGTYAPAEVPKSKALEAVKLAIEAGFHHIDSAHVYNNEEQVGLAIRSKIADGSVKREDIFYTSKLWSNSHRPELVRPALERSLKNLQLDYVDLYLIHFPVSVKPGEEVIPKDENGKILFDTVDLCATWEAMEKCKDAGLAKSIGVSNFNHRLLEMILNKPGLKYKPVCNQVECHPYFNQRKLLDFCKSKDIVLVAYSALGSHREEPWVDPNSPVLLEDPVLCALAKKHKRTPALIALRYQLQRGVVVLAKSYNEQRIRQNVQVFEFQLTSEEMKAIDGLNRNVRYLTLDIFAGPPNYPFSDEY
Experiment: Inhibition of the aldo-keto reductase family 1 member C2, 3H-dihydrotestosterone conversion
Assay type: biochemical
Settings: inhibitor at 10 μM
measure: inhibition at 10 µM (%)
# value in %; strip the unit string

For orientation, consider the following solved cases.
N#CC(=C1CCN(C(=O)N2CCc3[nH]ncc3C2)CC1)c1ccc(OC(F)(F)F)cc1 [Compound 54] | 15
N#CC(=C1CCN(C(=O)N2CCn3ncnc3C2)CC1)c1cccc(Cl)c1 [Compound 157] | 2
N#CC(=C1CCN(C(=O)N2CCc3nocc3C2)CC1)c1ccc(C(F)(F)F)cc1 [Compound 87] | 31
N#CC(=C1CCN(C(=O)N2CCn3cncc3C2)CC1)c1cc(F)cc(F)c1 [Compound 52] | 19
CCOC1CCN(C(=O)N2CCC(=C(C#N)c3ccc(F)cc3F)CC2)CC1 [Compound 137] | 18

Identify inhibition at 10 µM associated with the compound N#CC(=C1CCN(C(=O)N2CCCCC2)CC1)c1cc(F)cc(F)c1 [Compound 10]
10

Identify inhibition at 10 µM associated with the compound N#CC(=C1CCN(C(=O)N2CCOCC2)CC1)c1ccc(Cl)cc1 [Compound 2]
4

----------
Biological target: Recombinant human aldo-keto reductase family 1 member C2 (AKR1C2) protein (Homo sapiens, UniProt P52895)
Construct: made in house; host or cells: Sf-9 insect cells (baculovirus)
Sequence (P52895 1-323): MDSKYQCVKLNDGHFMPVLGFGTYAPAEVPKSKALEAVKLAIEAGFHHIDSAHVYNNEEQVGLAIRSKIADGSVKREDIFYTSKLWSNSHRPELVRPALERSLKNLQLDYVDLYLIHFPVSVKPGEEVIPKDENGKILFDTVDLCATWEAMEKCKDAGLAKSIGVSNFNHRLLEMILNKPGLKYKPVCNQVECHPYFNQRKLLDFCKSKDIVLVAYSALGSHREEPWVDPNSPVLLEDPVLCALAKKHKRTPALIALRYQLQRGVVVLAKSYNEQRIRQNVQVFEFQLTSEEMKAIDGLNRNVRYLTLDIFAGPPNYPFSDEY
Test: Inhibition of the aldo-keto reductase family 1 member C2, 3H-dihydrotestosterone conversion
Format: biochemical
Details: inhibitor at 10 μM
measure: inhibition at 10 µM
Number first, unit second: that is the form wanted.

For orientation, consider the following solved cases.
N#CC(=C1CCN(C(=O)N2CCc3sccc3C2)CC1)c1ccc(Cl)cn1 [Compound 66] | 8%
N#CC(=C1CCN(C(=O)N2C3CCC2COC3)CC1)c1ccc(F)cc1 [Compound 15] | 6%
CC(C)OC1CCN(C(=O)N2CCC(=C(C#N)c3cccc(Cl)c3)CC2)CC1 [Compound 139] | 8%
N#CC(=C1CCN(C(=O)N2C[C@@H]3CC[C@@H]2C3)CC1)c1ccc(F)c(F)c1 [Compound 34] | 12%
N#CC(=C1CCN(C(=O)N2CCn3cncc3C2)CC1)c1ccc(F)c(F)c1 [Compound 44] | 18%
CC(=O)N1CCN(C(=O)N2CCC(=C(C#N)c3ccc(F)cc3)CC2)CC1 [Compound 143] | 9%

Identify inhibition at 10 µM associated with the compound N#CC(=C1CCN(C(=O)N2C3CCC2COC3)CC1)c1ccc(F)c(F)c1 [Compound 31]
11%
